Data provenance is patent US20210171640A1.

# system: T1, human VISTA expressed on cells (human, UniProt Q9H7M9 33-295)
# T1 sequence: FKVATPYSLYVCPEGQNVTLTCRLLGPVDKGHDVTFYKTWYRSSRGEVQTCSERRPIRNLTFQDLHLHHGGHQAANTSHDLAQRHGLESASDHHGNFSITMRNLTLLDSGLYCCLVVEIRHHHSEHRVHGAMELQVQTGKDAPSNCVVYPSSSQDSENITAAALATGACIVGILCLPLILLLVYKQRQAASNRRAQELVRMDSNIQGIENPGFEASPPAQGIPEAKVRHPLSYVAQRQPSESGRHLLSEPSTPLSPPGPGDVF
# test-details: cell-based or functional assay
Parameter IC50, IFN-γ in the MLR: see the listing below.

VSTB116 (antibody, human IgG1, kappa, V domains shown) VH: QVQLVQSGAEVKKPGSSVKVSCKASGGTFSSYAISWVRQAPGQGLEWMGGIIPIFGTANYAQKFQGRVTITADESTSTAYMELSSLRSEDTAVYYCARSSYGWSYEFDYWGQGTLVTVSS VL: DIQMTQSPSSLSASVGDRVTITCRASQSINTNLNWYQQKPGKAPKLLIYAASSLQSGVPSRFSGSGSGTDFTLTISSLQPEDFATYYCQQARDTPITFGQGTKVEIKR    -0.16 log10 of antibody concentration

Now turn to the next binder.
GET /values?readout=IC50, IFN-γ in the MLR&item= VSTB50 (antibody, human IgG1, kappa, V domains shown) VH: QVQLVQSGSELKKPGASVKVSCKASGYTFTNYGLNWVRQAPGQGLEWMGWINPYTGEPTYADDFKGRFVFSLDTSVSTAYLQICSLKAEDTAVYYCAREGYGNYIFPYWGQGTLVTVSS VL: DIVMTQTPLSLSVTPGQPASISCRASESVDTYANSLMHWYLQKPGQPPQLLIYRASNLESGVPDRFSGSGSGTDFTLKISRVEAEDVGVYYCQQTNEDPRTFGQGTKLEIKR
0.06 log10 of antibody concentration
